Test system: PPARg:RXRa 270nM:90nM, anti-RXR (NR concentration 270 nM, RXRa partner concentration 90 nM)
Assay: PBM binding z-score (relative to random genomic background probes); higher = stronger binding; sequences stand for … in GC…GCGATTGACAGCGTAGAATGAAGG
Lab note: compare PBM binding z-score against 3. Equal or greater, write Satisfied. Smaller, write Not satisfied.

| sequence-text | discrete-label |
| --- | --- |
| CCTTACGGGTCACGAGGTTCTAGCACGACGAGCG | Satisfied |
| CCTTACGGGTCACGAGGTTTTAGCACGACGAGCG | Satisfied |
| CTACCAAGGTGAACAAGGTCATTGATTACTATTC | Not satisfied |
| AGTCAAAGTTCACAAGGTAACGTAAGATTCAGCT | Satisfied |
| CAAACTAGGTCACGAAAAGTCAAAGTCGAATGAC | Satisfied |

Quick check: does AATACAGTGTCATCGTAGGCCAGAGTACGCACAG have PBM binding z-score greater than or equal to 3?
Not satisfied

// repeat for CTACCAATGTGAACAAGGTCGTTGATTACTATTC and report
Not satisfied

// repeat for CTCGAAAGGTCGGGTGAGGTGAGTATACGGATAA and report
Not satisfied

====

Test system: RARg:RXRa (NR concentration 270 nM, RXRa partner concentration 90 nM)
Test: PBM binding z-score (relative to random genomic background probes); higher = stronger binding; sequences stand for … in GC…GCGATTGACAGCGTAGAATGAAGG
value-type: PBM binding z-score
Kindly provide the number alone.

Please review the entries below; each comes with its answer.
| sequence-text | PBM binding z-score |
| --- | --- |
| CCTACTGGGCCATTCAGAGGTCATTGCTCATATG | 4.44 |
| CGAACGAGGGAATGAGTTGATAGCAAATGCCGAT | -0.383 |

# query: PBM binding z-score | item CTCGAAAGGTCGATTGAGGTGAGTATACGGATAA | system: RARg:RXRa (NR concentration 270 nM, RXRa partner concentration 90 nM)
3.71

// repeat for AGAATGAGGTTAATATCAGGGAAACAGAATACAT and report
1.84

// repeat for CCTTACGGTTCACGAGGTTATAGCACGACGAGCG and report
2.73

// repeat for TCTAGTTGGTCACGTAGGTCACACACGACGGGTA and report
3.36

// repeat for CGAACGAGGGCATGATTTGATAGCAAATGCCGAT and report
0.771

// repeat for GATGCTAGGTCAGGTTGGTCAGCTAACGGGTACG and report
2.37

====

Test system: LXRa homodimer (NR concentration 270 nM)
Assay: PBM binding z-score (relative to random genomic background probes); higher = stronger binding; sequences stand for … in GC…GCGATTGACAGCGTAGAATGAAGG
Lab note: compare PBM binding z-score against 0.5. Equal or greater, write Criterion met. Smaller, write Criterion not met.

Here are 3 sequences together with their reported answers.
| sequence-text | discrete-label |
| --- | --- |
| ATATGTCGGTTACATCCGGGTCATTCAGGCTATG | Criterion met |
| TAGAGTAGGTTAGGGGCATTCAGAATGGCGTCGA | Criterion not met |
| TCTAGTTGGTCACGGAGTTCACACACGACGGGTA | Criterion met |

Could you now consider this next sequence?
Quick check: does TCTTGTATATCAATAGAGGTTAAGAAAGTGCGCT have PBM binding z-score greater than or equal to 0.5?
Criterion met
